target.system: T1, mouse recombinant EphA2-Fc fusion protein (mouse, UniProt Q03145 26-535, limits assumed)
T1 construct: also called mouse EphA2; not shown: Fc part
T1 sequence (Q03145 26-535 limits assumed): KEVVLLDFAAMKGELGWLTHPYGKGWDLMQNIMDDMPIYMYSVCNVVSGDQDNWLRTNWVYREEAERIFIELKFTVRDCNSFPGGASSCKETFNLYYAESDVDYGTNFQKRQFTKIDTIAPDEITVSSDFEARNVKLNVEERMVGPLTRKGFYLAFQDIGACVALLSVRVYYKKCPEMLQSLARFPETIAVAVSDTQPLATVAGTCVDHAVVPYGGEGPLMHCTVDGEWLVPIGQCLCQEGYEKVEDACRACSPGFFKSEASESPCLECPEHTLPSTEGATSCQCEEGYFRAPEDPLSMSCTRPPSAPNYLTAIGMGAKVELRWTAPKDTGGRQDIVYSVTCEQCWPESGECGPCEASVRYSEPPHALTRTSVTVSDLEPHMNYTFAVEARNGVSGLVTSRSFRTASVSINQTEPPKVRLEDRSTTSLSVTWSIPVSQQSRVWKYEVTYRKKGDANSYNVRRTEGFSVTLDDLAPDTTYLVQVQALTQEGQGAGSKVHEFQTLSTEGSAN
test.description: flow cytometry of yeast-displayed scFv with mouse recombinant EphA2-Fc, curve fit of normalized MFI (apparent KD)
Parameter: pKd. Scope: all listed entries.
Expect pKd as a plain number equal to -log10 of the molar concentration.

[
  {
    "binder": "RYRgerm scFv (scFv) EVQLVESGGGLVQPGGSLRLSCAASGFTFSSYSMNWVRQAPGKGLEWVSYISSSSSTIYYADSVKGRFTISRDNAKNSLYLQMNSLRAEDTAVYYCARYRLPDFWSGYPNYGMDVWGQGTTVTVSSGGGGSGGGGSGGGGSQSVLTQPPSVSGAPGQRVTISCTGSSSNIGAGYDVHWYQQLPGTAPKLLIYGNSNRPSGVPDRFSGSKSGTSASLAITGLQAEDEADYYCQSYDSSLSGHVVFGGGTKLTVL",
    "test.readout": "pKd",
    "assay.value": 6.94
  }
]

pKd for RYRgerm_102919_22 scFv (scFv) scFv: EVQLVESGGGLVQPGGSLRLSCAASGFTFSSYSMNWVRQAPGKGLEWVSYISSSSSTIYYADSVKGRFTISRDNAKNSLYLQMNSLRAEDTAVYYCARYRLPNFWSGYPNYGMDVWGQGTTVTVSSGGGGSGGGGSGGGGSQSVLTQPPSVSGAPGQRVTISCTGSSSNIGAGYDVHWYQQLPGTAPKLLIYGNSNRPSGVPDRFSGSKSGTSASLAITGLQAEDEADYYCQSYDSSLSGHVVFGGGTKLTVL ?
8.87
